- Test protocol: Measurement of the solubilization of active ingredients by amphiphiles
- Assay type: physicochemical
- Protocol conditions: water, thermodynamic from solid
Reported property: solubility at 24 h (µg/mL)
Express it in µg/mL; write the number only.

Reported solubility at 24 h for N#Cc1nn(-c2c(Cl)cc(C(F)(F)F)cc2Cl)c(N)c1[S+]([O-])C(F)(F)F (stereo not shown) [Fipronil] was 3

====

solubility at 24 h for assorted compounds
- Test protocol: Measurement of the solubilization of active ingredients by amphiphiles
- Assay type: physicochemical
- Protocol conditions: thermodynamic from solid; distilled water without polymer, room temperature, stirred 24 h, UV spectroscopy; read-out: Solubility of active ingredient, no polymer (noninventive)
Express it in µg/mL; write the number only.

Compound | solubility at 24 h / µg/mL
CN1C(C(=O)Nc2ccccn2)=C(O)c2ccccc2S1(=O)=O | 21
NC(=O)N1c2ccccc2C=Cc2ccccc21 [Carbamazepine] | 140

Alright, here's another compound for you.
Reported solubility at 24 h for COC(=O)N(OC)c1ccccc1COc1ccn(-c2ccc(Cl)cc2)n1 was 22.5
